# System: field corn (Zea mays L., var. Dekalb 535, CORN)
# protocol.description: Post-emerge greenhouse test, crop damage rating
# Assay type: in vivo
# protocol.conditions: 63 g al/ha, 14 days after application
Measured CORN crop damage rating (0-100) accompanies every entry in the list below.
Format: numeric value only, no unit, no commentary.

Example molecules with recorded CORN crop damage rating (0-100):
CN1CC(=O)N(c2cc(Oc3ncccn3)c(Cl)cc2F)C1=O :: 0
N#Cc1cccnc1Oc1cc(-n2nnn(CCCF)c2=O)c(F)cc1Cl :: 10
O=c1cc2n(c(=O)n1-c1cc(Oc3ncccn3)c(Cl)cc1F)CCC2 :: 0

The measured CORN crop damage rating (0-100) associated with `O=c1sc(=Nc2cc(Oc3ncccn3)c(Cl)cc2F)n2n1CCCC2` reads 35

The measured CORN crop damage rating (0-100) associated with `Cn1c(C(F)(F)F)nc(-c2cc(Oc3ncccn3)c(Cl)cc2F)c1Cl` reads 30

The measured CORN crop damage rating (0-100) associated with `O=c1n(-c2cc(Oc3ccccc3[N+](=O)[O-])c(Cl)cc2F)c(=S)n2n1CCCC2` reads 5

The measured CORN crop damage rating (0-100) associated with `Cn1nc(-c2cc(Oc3ncccn3)c(Cl)cc2F)c(Cl)c1C(F)(F)F` reads 90

The measured CORN crop damage rating (0-100) associated with `N#Cc1cc([N+](=O)[O-])ccc1Oc1cc(-n2c(=O)n3n(c2=S)CCCC3)c(F)cc1Cl` reads 0

The measured CORN crop damage rating (0-100) associated with `O=c1n(-c2cc(Oc3ccc([N+](=O)[O-])cc3)c(Cl)cc2F)c(=S)n2n1CCCC2` reads 10

The measured CORN crop damage rating (0-100) associated with `O=c1n(CCCF)nnn1-c1cc(Oc2ncccc2[N+](=O)[O-])c(Cl)cc1F` reads 5

The measured CORN crop damage rating (0-100) associated with `O=c1n(CCCF)nnn1-c1cc(Oc2ncc(Br)cn2)c(Cl)cc1F` reads 10

The measured CORN crop damage rating (0-100) associated with `Cn1nc(-c2cc(Oc3cccc(F)n3)c(Cl)cc2F)c(Cl)c1C(F)(F)F` reads 10

The measured CORN crop damage rating (0-100) associated with `Cn1nc(-c2cc(Oc3ncccc3C(F)(F)F)c(Cl)cc2F)c(Cl)c1C(F)(F)F` reads 0

The measured CORN crop damage rating (0-100) associated with `O=c1n(CCCF)nnn1-c1cc(Oc2ncccc2C(F)(F)F)c(Cl)cc1F` reads 5

The measured CORN crop damage rating (0-100) associated with `Cc1nn(-c2cc(Oc3ncccn3)c(Cl)cc2F)c(=O)n1C(F)F` reads 25

The measured CORN crop damage rating (0-100) associated with `Cn1nc(-c2cc(Oc3nc(F)c(F)cc3F)c(Cl)cc2F)c(Cl)c1C(F)(F)F` reads 10

The measured CORN crop damage rating (0-100) associated with `N#Cc1ccccc1Oc1cc(-n2c(=O)n3n(c2=S)CCCC3)c(F)cc1Cl` reads 20

The measured CORN crop damage rating (0-100) associated with `CC(=O)Nc1ccc(Oc2cc(-n3c(=O)n4n(c3=S)CCCC4)c(F)cc2Cl)c(C(F)(F)F)c1` reads 0

The measured CORN crop damage rating (0-100) associated with `O=c1n(-c2cc(Oc3ccc([N+](=O)[O-])cc3C(F)(F)F)c(Cl)cc2F)c(=S)n2n1CCCC2` reads 5

====

# Tested on: redroot pigweed (Amaranthus retroflexus, AMARE)
# protocol.description: Post-emerge greenhouse herbicide test, phytotoxicity rating
# Format: in vivo
# protocol.conditions: 63 g al/ha, 14 days after application
reported.property: AMARE phytotoxicity rating (0-100)

Example compounds with recorded AMARE phytotoxicity rating (0-100):
Nc1ccc(Oc2cc(-n3c(=O)n4n(c3=S)CCCC4)c(F)cc2Cl)c(C(F)(F)F)c1 [Compound 8-15] :: 40
N#Cc1ccccc1Oc1cc(-n2c(=O)n3n(c2=S)CCCC3)c(F)cc1Cl [Compound 8-7] :: 100
O=c1n(-c2cc(Oc3ccc([N+](=O)[O-])cc3)c(Cl)cc2F)c(=S)n2n1CCCC2 [Compound 8-8] :: 95
CCOC(=O)C(C)Oc1ccc(Oc2cc(-n3c(=O)n4n(c3=S)CCCC4)c(F)cc2Cl)cc1 (centres unmarked) [Compound 8-11] :: 100

The measured AMARE phytotoxicity rating (0-100) associated with Cn1nc(-c2cc(Oc3ncccc3C#N)c(Cl)cc2F)c(Cl)c1C(F)(F)F [Compound 1-3] reads 100

====

# System: soybean (Glycine max L., var. Pella 86, SOY)
# protocol.description: Pre-emerge greenhouse test, crop damage rating
# Assay type: in vivo
# Parameters: key: 0 = no damage, 100 = complete death of all plants
# protocol.conditions: Rate 125 g al/ha, 14 days after application, rating scale 0-100
reported.property: SOY crop damage rating
Format: numeric value only, no unit, no commentary.

Example compounds with recorded SOY crop damage rating:
CS(=O)(=O)c1cccnc1Oc1cc(-n2c(=O)n3n(c2=S)CCCC3)c(F)cc1Cl :: 0
O=c1n(-c2cc(Oc3ccccn3)c(Cl)cc2F)c(=S)n2n1CCCC2 :: 0
O=c1n(-c2cc(Oc3nc(F)c(F)cc3F)c(Cl)cc2F)c(=S)n2n1CCCC2 :: 10

The measured SOY crop damage rating associated with `O=c1n(-c2cc(Oc3ncc([N+](=O)[O-])s3)c(Cl)cc2F)c(=S)n2n1CCCC2` reads 0

====

# System: barnyardgrass (Echinochloa crusgalli, ECHCG)
# protocol.description: Pre-emerge greenhouse herbicide test, phytotoxicity rating
# Type: in vivo
# protocol.conditions: Echinochloa crus-galli, pre-emergence, 336 h, Rate 500 g al/ha, 14 days after application, rating scale 0-100
reported.property: pest or weed control at 500 g/ha (%)
Could you give me the number in %? Just the number is fine.

Example compounds with recorded pest or weed control at 500 g/ha:
Nn1c(C(F)(F)F)cc(=O)n(-c2cc(Oc3ccc(Cl)cn3)c(Cl)cc2F)c1=O [Compound 9-3] :: 99
Nn1c(C(F)(F)F)cc(=O)n(-c2cc(Oc3cc([N+](=O)[O-])cc(C(F)(F)F)c3)c(Cl)cc2F)c1=O [Compound 9-23] :: 70
Nn1c(C(F)(F)F)cc(=O)n(-c2cc(Oc3nc(F)c(F)cc3F)c(Cl)cc2F)c1=O [Compound 9-6] :: 100
N#Cc1ccc(Oc2cc(-n3c(=O)cc(C(F)(F)F)n(N)c3=O)c(F)cc2Cl)nc1 [Compound 9-10] :: 100
Nn1c(C(F)(F)F)cc(=O)n(-c2cc(Oc3ncccc3[N+](=O)[O-])c(Cl)cc2F)c1=O [Compound 9-1] :: 100
Nn1c(C(F)(F)F)cc(=O)n(-c2cc(Oc3cccc(Cl)n3)c(Cl)cc2F)c1=O [Compound 9-5] :: 100
O=c1n(-c2cc(Oc3ncccn3)c(Cl)cc2F)c(=S)n2n1CCCC2 [Compound 8-29] :: 100

Next up:
The measured pest or weed control at 500 g/ha associated with Nn1c(C(F)(F)F)cc(=O)n(-c2cc(Oc3ccccc3)c(Cl)cc2F)c1=O [Compound 9-26] reads 100

====

# Tested on: green foxtail (Setaria viridis, SETVI)
# protocol.description: Post-emerge greenhouse herbicide test, phytotoxicity rating
# Format: in vivo
# protocol.conditions: 500 g al/ha, 14 days after application
Measured SETVI phytotoxicity rating (0-100) accompanies every entry in the list below.
Format: numeric value only, no unit, no commentary.

Example compounds with recorded SETVI phytotoxicity rating (0-100):
Cn1nc(-c2cc(Oc3ccc(C#N)cn3)c(Cl)cc2F)c(Cl)c1C(F)(F)F [Compound 1-4] :: 70
O=c1n(-c2cc(Oc3ccccc3[N+](=O)[O-])c(Cl)cc2F)c(=S)n2n1CCCC2 [Compound 8-6] :: 90
CS(=O)(=O)Nc1ccc(Oc2cc(-n3c(=O)cc4n(c3=O)CCC4)c(F)cc2Cl)cc1 [Compound 5-5] :: 0
O=c1n(CCCF)nnn1-c1cc(Oc2ncccc2C(F)(F)F)c(Cl)cc1Cl [Compound 6-7] :: 30
O=c1n(CCCF)nnn1-c1cc(Oc2ncc(Br)cn2)c(Cl)cc1F [Compound 6-16] :: 50

The measured SETVI phytotoxicity rating (0-100) associated with O=c1sc(=Nc2cc(Oc3ncccn3)c(Cl)cc2F)n2n1CCCC2 [Compound 7-2] reads 100

The measured SETVI phytotoxicity rating (0-100) associated with O=c1n(CCCF)nnn1-c1cc(Oc2ncccn2)c(Cl)cc1Cl [Compound 6-14] reads 70

The measured SETVI phytotoxicity rating (0-100) associated with O=c1cc2n(c(=O)n1-c1cc(Oc3ncccn3)c(Cl)cc1F)CCC2 [Compound 5-12] reads 50

The measured SETVI phytotoxicity rating (0-100) associated with O=c1n(-c2cc(Oc3ccc([N+](=O)[O-])cc3C(F)(F)F)c(Cl)cc2F)c(=S)n2n1CCCC2 [Compound 8-14] reads 20

The measured SETVI phytotoxicity rating (0-100) associated with COc1cc(OC)nc(Oc2cc(-n3nnn(CCCF)c3=O)c(F)cc2Cl)n1 [Compound 6-15] reads 40
